Cited source: PubChem BioAssay (EPA / NIEHS)

Read-out: Vascular cell adhesion molecule 1 (VCAM1), VCAM1 (gene 7412)
Experiment: BSK_CASM3C_VCAM1: BioMAP Diversity Plus: CASM3C Assay for Vascular cell adhesion molecule 1 (VCAM1) Biomarker Activity (AID 2283055);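 further: VCAM-1 protein level quantified by ELISA on the cells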
Settings: primary human coronary artery smooth muscle cells; actives raise or lower the signal
Active and inactive are the calls of the source. How the source made its calls: active means hit-call score of the fitted dose curve at least 0.9, where 1 is the maximum; inactive means score below 0.9.
A correct response names exactly one class from true (1) = active, false (0) = inactive

Record excerpt, results attached:
Task: Test call, this compound: `CCCCCCCCCc1ccc(O)cc1`
Output: true (1)

Task: Record request — test call for `CCOC(=O)C(O)(c1ccc(Cl)cc1)c1ccc(Cl)cc1`
Output: true (1)

Task: How was `O=C(O)C(F)(F)C(F)(F)C(F)(F)C(F)(F)C(F)(F)F` classified in this test?
Output: false (0)

Task: GET /call?item= `Cc1cc2c3c(c1)C(c1ccccc1)=N[C@@H](NC(=O)c1ccncc1)C(=O)N3CC2` returns the recorded outcome of this test.
Output: false (0)

Further cases:
Task: Which outcome did this test record for the compound `Cc1cccc(C)c1N` ?
Output: false (0)

Task: What is the recorded call for this compound in the test? `Oc1c(Cl)c(Cl)c(Cl)c(Cl)c1Cl`
Output: true (1)

Task: Look up the recorded call for `CCSC(=O)N(CC)C1CCCCC1` in this test.
Output: false (0)

Task: How was `CC(C)(O)C(=O)Nc1ccc([N+](=O)[O-])c(C(F)(F)F)c1` classified in this test?
Output: false (0)

Task: Any idea what this test logged for CCC(C)c1cc([N+](=O)[O-])cc([N+](=O)[O-])c1O (stereo not drawn) ?
Output: false (0)

Task: Hello, I am checking results. What call was entered for `ClC1=C(Cl)[C@]2(Cl)[C@@H]3[C@@H](Cl)[C@H]4O[C@H]4[C@@H]3C1(Cl)C2(Cl)Cl` ?
Output: false (0)

Task: # fetch the recorded call for `CC1=C2C[C@H]3[C@@H](CC=C4C[C@@H](O)CC[C@@]43C)[C@@H]2CC[C@]12O[C@@H]1C[C@H](C)CN[C@H]1[C@H]2C` here
Output: false (0)

Task: Answer briefly: the call reported for `Clc1ccc(Cl)cc1` in this assay.
Output: false (0)

Task: Give the logged outcome of this assay for the following compound: `CCCCCCCCCC[N+](C)(C)CCCCCCCCCC`
Output: true (1)

Task: Assay result, entry `CN(C)CCO` — outcome?
Output: false (0)

Task: What is the recorded call for this compound in the test? `N#Cc1ccc(N(CC(N)=O)CC(F)(F)F)cc1C(F)(F)F`
Output: false (0)

Task: What outcome does the record of this test show for `CC#Cc1cc(C)nc(Nc2ccccc2)n1` ?
Output: false (0)

Task: What call does the record list for `CCCCCCOC(=O)c1ccccc1C(=O)OCCCCCC` ?
Output: false (0)

Task: Which result was noted for this compound in the test: CC(C)C(=O)OCC(C)(C)C(OC(=O)C(C)C)C(C)C (stereo not drawn)
Output: false (0)

====

Read-out: Insulin-like growth factor-binding protein 1 (IGFBP1), IGFBP1 (gene 3484)
Experiment: LTEA_HepaRG_IGFBP1: Life Technologies and Expression Analysis (LTEA) Assay for Insulin-like growth factor-binding protein 1 (IGFBP1) using HepaRG (AID 2283508)
Conditions: mRNA level, 48 h; actives raise or lower the signal
Activity calls are given as the source filed them. How the source made its calls: active means hit-call score of the fitted dose curve at least 0.9, where 1 is the maximum; inactive means score below 0.9.
Please reply with one of these outcomes: TRUE = active, FALSE = inactive

Task: Per the assay record, what outcome was assigned to `Oc1ccc(C(c2ccc(O)cc2)(C(F)(F)F)C(F)(F)F)cc1` ?
Output: TRUE

Task: Which outcome did this test record for the compound `N#Cc1ccc(N(CC(N)=O)CC(F)(F)F)cc1C(F)(F)F` ?
Output: FALSE

Task: Outcome logged for `O=S(=O)(O)C(F)(F)C(F)(F)C(F)(F)C(F)(F)C(F)(F)C(F)(F)F` in this assay:
Output: FALSE

Task: Test call for this compound, please: `CC(C)(O)C(=O)Nc1ccc([N+](=O)[O-])c(C(F)(F)F)c1`
Output: TRUE

Task: Please indicate how the test categorized CCC(C)c1cc([N+](=O)[O-])cc([N+](=O)[O-])c1O (configuration not stated) .
Output: TRUE

Task: In this assay, the call recorded for `CCC(C)(CC)c1cc(NC(=O)c2c(OC)cccc2OC)on1` was what?
Output: TRUE

Task: Recorded test call requested for `Cc1cc(O)ccc1Cl`
Output: FALSE

Task: Lab log entry: `Cc1ccccc1[N+](=O)[O-]` — outcome as called in the assay?
Output: FALSE

Task: # lookup: test call for `CCNc1nc(NC(C)C)nc(SC)n1`
Output: FALSE

Task: Please let me know the test result on file for `ClC(Cl)=C(c1ccc(Cl)cc1)c1ccc(Cl)cc1` .
Output: FALSE

***
Task: Look up the recorded call for `c1cc2ccc3cccc4ccc(c1)c2c34` in this test.
Output: FALSE

Task: Write down the call the test reported for this compound. Item: `Clc1ccc(C(Cl)(Cl)Cl)cc1`
Output: FALSE
